Recorded measurements of yeast fitness, one per entry
B1: tRNA (parent)
chain: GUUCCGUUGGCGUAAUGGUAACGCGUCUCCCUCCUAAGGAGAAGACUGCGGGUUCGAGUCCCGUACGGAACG

# Variants of: B1
# assay: yeast fitness relative to wild type (ratio to wild type); higher = fitter; tRNA-Arg(CCU), competitive growth, 37 C, YPD
This sample holds only a part of the variants without activity.
measurement-name: yeast fitness

{"variant-code": "U7A G10C C22U C27G C61A C62U A65U A69C", "measurement-name": "yeast fitness", "result-value": "≤ 0.5"}
{"variant-code": "A21U C31G C33G", "measurement-name": "yeast fitness", "result-value": "≤ 0.5"}
{"variant-code": "G23A C29U C60U A65U", "measurement-name": "yeast fitness", "result-value": "≤ 0.5"}
{"variant-code": "A15C G17C C31G G50C C62G A70C", "measurement-name": "yeast fitness", "result-value": "≤ 0.5"}
{"variant-code": "C11U U54A G58C", "measurement-name": "yeast fitness", "result-value": "≤ 0.5"}
{"variant-code": "C24G G44A C46U U53C C62U", "measurement-name": "yeast fitness", "result-value": "≤ 0.5"}
{"variant-code": "U2A A21C C29U", "measurement-name": "yeast fitness", "result-value": "≤ 0.5"}
{"variant-code": "A20G C29G G50A A70U", "measurement-name": "yeast fitness", "result-value": "≤ 0.5"}
{"variant-code": "C4G U13G U16A", "measurement-name": "yeast fitness", "result-value": "≤ 0.5"}
{"variant-code": "G6A C30G C55G", "measurement-name": "yeast fitness", "result-value": "≤ 0.5"}
{"variant-code": "U8G U54G G56C", "measurement-name": "yeast fitness", "result-value": "≤ 0.5"}
{"variant-code": "U7A U19G A70G", "measurement-name": "yeast fitness", "result-value": "≤ 0.5"}
{"variant-code": "G10A C24G C33G A45U G68C", "measurement-name": "yeast fitness", "result-value": "≤ 0.5"}
{"variant-code": "U8G C34U A40G C46A", "measurement-name": "yeast fitness", "result-value": "≤ 0.5"}
{"variant-code": "G17C C27U A65C", "measurement-name": "yeast fitness", "result-value": 0.54}
{"variant-code": "A43C G56A C61A", "measurement-name": "yeast fitness", "result-value": 0.525}
{"variant-code": "C55U A65U", "measurement-name": "yeast fitness", "result-value": 0.794}
{"variant-code": "U3G U28A C33U A36G C66A", "measurement-name": "yeast fitness", "result-value": "≤ 0.5"}
{"variant-code": "C5U C55G C66U A69U", "measurement-name": "yeast fitness", "result-value": "≤ 0.5"}
{"variant-code": "C11U A42G", "measurement-name": "yeast fitness", "result-value": 0.917}
{"variant-code": "G9A C27G C31U C46G G51C A70U", "measurement-name": "yeast fitness", "result-value": "≤ 0.5"}
{"variant-code": "C34A G50C", "measurement-name": "yeast fitness", "result-value": 0.667}
{"variant-code": "U2A G50A", "measurement-name": "yeast fitness", "result-value": 0.858}
{"variant-code": "G6A G9C C11G C34U U59A A69C", "measurement-name": "yeast fitness", "result-value": "≤ 0.5"}
{"variant-code": "A14U G18A C30A", "measurement-name": "yeast fitness", "result-value": "≤ 0.5"}
{"variant-code": "A14U G23A C31U A43U", "measurement-name": "yeast fitness", "result-value": "≤ 0.5"}
{"variant-code": "A20C A36U G39C G48A", "measurement-name": "yeast fitness", "result-value": "≤ 0.5"}
{"variant-code": "C29U G50C A70G", "measurement-name": "yeast fitness", "result-value": "≤ 0.5"}
{"variant-code": "U13G C22U G63A", "measurement-name": "yeast fitness", "result-value": 0.707}
{"variant-code": "A15C G51C C61U", "measurement-name": "yeast fitness", "result-value": "≤ 0.5"}
{"variant-code": "G9C U54C U59C A69G", "measurement-name": "yeast fitness", "result-value": "≤ 0.5"}
{"variant-code": "C24A G44A", "measurement-name": "yeast fitness", "result-value": 0.7}
{"variant-code": "G9A C29U A65U", "measurement-name": "yeast fitness", "result-value": "≤ 0.5"}
{"variant-code": "G9C U13A U59A", "measurement-name": "yeast fitness", "result-value": 0.718}
